Parameter mass density: see the listing below.
- experiment description: xn = mol fraction of the nth substance listed
- experimental conditions: 323.15 K; 101.3 kPa; Liquid; x2 = 0.5
Value expressed in kg/m3; do not type the unit.

compound	property measured	experimental value
CC(C)CC(C)O (centres undefined) [4-methyl-2-pentanol] + CCCCN	mass density	755.9
CCCC(O)CC (centres undefined) [3-hexanol] + CCCCN	mass density	763.2
CCCCC(C)O (centres undefined) [2-hexanol] + CCCCN	mass density	760.8

Data request: Name the reported mass density value associated with the compound CCCC(C)CO (centres undefined) [2-methyl-1-pentanol] + CCCCN
Data returned: 767.2

* * *

- experiment description: xn = mol fraction of the nth substance listed
- experimental conditions: 313.15 K; 101.3 kPa; Liquid; x2 = 0.1
// values below are reported mass density
// return numeric value only (unit: kg/m3, not printed)

compound	display unit	mass density
CCCC(C)CO (stereo not given) [2-methyl-1-pentanol] + CCCCN	kg/m3	803
CCCC(C)(C)O [2-methyl-2-pentanol] + CCCCN	kg/m3	798.2
CC(C)CC(C)O (stereo not given) [4-methyl-2-pentanol] + CCCCN	kg/m3	787
CCCCC(C)O (stereo not given) [2-hexanol] + CCCCN	kg/m3	794.2

// moving on: another record for mass density
Data request: For the compound CCCC(O)CC (stereo not given) [3-hexanol] + CCCCN , what mass density is on record?
Data returned: 798.4

* * *

- experiment description: xn = mol fraction of the nth substance listed
- experimental conditions: 303.15 K; 101.3 kPa; Liquid; x2 = 0.3
property measured: viscosity (mPa·s)
Form entry: value (mPa·s) — number only.

Data request: Requested read-out: viscosity. Entry: CC(C)CC(C)O (centres undefined) [4-methyl-2-pentanol] + CCCCN
Data returned: 1.66

Data request: Give its viscosity value. Item: CCCCC(C)O (centres undefined) [2-hexanol] + CCCCN
Data returned: 1.78

Data request: If you can, please state the reported viscosity value of CCCC(C)(C)O [2-methyl-2-pentanol] + CCCCN .
Data returned: 1.86

Data request: Would you kindly share the measured viscosity for CCCC(O)CC (centres undefined) [3-hexanol] + CCCCN ?
Data returned: 1.78

* * *

Parameter mass density: see the listing below.
- experiment description: xn = mol fraction of the nth substance listed
- experimental conditions: 323.15 K; 101.3 kPa; Liquid; x2 = 0.2
Note: unit kg/m3 is implicit; provide only the numeric part.

compound	display unit	mass density
CCCC(O)CC (stereo not given) [3-hexanol] + CCCCN	kg/m3	785

Data request: I would be grateful if you could share the reported mass density for CCCC(C)(C)O [2-methyl-2-pentanol] + CCCCN .
Data returned: 784

Data request: Report mass density for CCCC(C)CO (stereo not given) [2-methyl-1-pentanol] + CCCCN please.
Data returned: 789.6

Data request: I am curious: what mass density value has been reported for CC(C)CC(C)O (stereo not given) [4-methyl-2-pentanol] + CCCCN ?
Data returned: 774.5

Data request: Fill blank: measured mass density of the compound CCCCC(C)O (stereo not given) [2-hexanol] + CCCCN is ____.
Data returned: 780.6

* * *

- experiment description: xn = mol fraction of the nth substance listed
- experimental conditions: 323.15 K; 101.3 kPa; Liquid; x2 = 0.3
Collected viscosity values appear next to each entry.
The response must be a number in mPa·s with no trailing unit.

# example entries with known answers
molecule	display unit	viscosity
CCCCC(C)O (centres undefined) [2-hexanol] + CCCCN	mPa·s	1.1
CCCC(O)CC (centres undefined) [3-hexanol] + CCCCN	mPa·s	1.07
CCCC(C)(C)O [2-methyl-2-pentanol] + CCCCN	mPa·s	1.04

Data request: Query: viscosity; subject: CC(C)CC(C)O (centres undefined) [4-methyl-2-pentanol] + CCCCN
Data returned: 1.02

* * *

Each entry below lists one item and its recorded viscosity value.
- experiment description: xn = mol fraction of the nth substance listed
- experimental conditions: 313.15 K; 101.3 kPa; Liquid; x2 = 0.9
Give a bare numeral; the unit mPa·s is implied.

# example entries with known answers
compound	viscosity, mPa·s
CCCC(O)CC (centres undefined) [3-hexanol] + CCCCN	0.46
CCCC(C)(C)O [2-methyl-2-pentanol] + CCCCN	0.47
CCCCC(C)O (centres undefined) [2-hexanol] + CCCCN	0.47

Data request: Please report the recorded viscosity for CC(C)CC(C)O (centres undefined) [4-methyl-2-pentanol] + CCCCN .
Data returned: 0.48

* * *

- experiment description: xn = mol fraction of the nth substance listed
- experimental conditions: 313.15 K; 101.3 kPa; Liquid; x2 = 0.2
# reported viscosity; entries follow
# value in mPa·s; strip the unit string

molecule	viscosity [mPa·s]
CCCC(O)CC (stereo not given) [3-hexanol] + CCCCN	1.79
CCCCC(C)O (stereo not given) [2-hexanol] + CCCCN	1.68
CC(C)CC(C)O (stereo not given) [4-methyl-2-pentanol] + CCCCN	1.57

Data request: For the molecule shown here, CCCC(C)CO (stereo not given) [2-methyl-1-pentanol] + CCCCN , give the reported viscosity.
Data returned: 2.06

Data request: Quick one: viscosity of CCCC(C)(C)O [2-methyl-2-pentanol] + CCCCN ?
Data returned: 1.66

* * *

- experimental conditions: 303.15 K; 101.3 kPa; Liquid
Returns: string. Value is MET if measured viscosity is below 3 mPa·s, and NOT MET if it is greater than or equal to it.

molecule	group
CCCC(O)CC (stereo unspecified)	NOT MET
CCCCN	MET

Data request: Here's an entry: CCCC(C)CO (stereo unspecified) . Is its viscosity below 3 mPa·s?
Data returned: NOT MET

Data request: Bench note: check whether CCCCC(C)O (stereo unspecified) shows viscosity below 3 mPa·s
Data returned: NOT MET

Data request: Quick check: viscosity of CC(C)CC(C)O (stereo unspecified) under 3 mPa·s?
Data returned: NOT MET

* * *

- experimental conditions: 313.15 K; 101.3 kPa; Liquid
Numbers after ± are expanded uncertainties.
property measured: mass density

Known mass density results, listed for orientation:
molecule	mass density
CCCC(O)CC (stereo unspecified)	801.7 ± 1.2 kg/m3
CC(C)CC(C)O (stereo unspecified)	790.7 ± 1 kg/m3
CCCC(C)CO (stereo unspecified)	809.5 ± 1.2 kg/m3

Data request: Give the measured mass density of "CCCCN" .
Data returned: 722.9 ± 1.2 kg/m3

Data request: Consider the molecule shown here: "CCCC(C)(C)O" What is its recorded mass density?
Data returned: 802.4 ± 1 kg/m3

Data request: Please give the measured mass density for this molecule: CCCCC(C)O (stereo unspecified)
Data returned: 798.4 ± 1 kg/m3

* * *

- experiment description: xn = mol fraction of the nth substance listed
- experimental conditions: 313.15 K; 101.3 kPa; Liquid; x2 = 0.2
property measured: mass density (kg/m3)
Give the number; kg/m3 is assumed, so skip it.

The examples below pair each entry with its known result.
molecule	mass density / kg/m3
CC(C)CC(C)O (stereo not given) [4-methyl-2-pentanol] + CCCCN	782.9
CCCCC(C)O (stereo not given) [2-hexanol] + CCCCN	788.9
CCCC(C)(C)O [2-methyl-2-pentanol] + CCCCN	793.1

Data request: Request the reported mass density associated with CCCC(O)CC (stereo not given) [3-hexanol] + CCCCN
Data returned: 793.5

Data request: State the recorded mass density for this entry: CCCC(C)CO (stereo not given) [2-methyl-1-pentanol] + CCCCN
Data returned: 797.4

* * *

- experiment description: xn = mol fraction of the nth substance listed
- experimental conditions: 303.15 K; 101.3 kPa; Liquid; x2 = 0.5
Recorded viscosity by entry
Reply numerically in mPa·s, unit not repeated.

The following molecules have reported results that may help.
molecule	display unit	experimental value
CCCC(O)CC (centres undefined) [3-hexanol] + CCCCN	mPa·s	1.13
CCCCC(C)O (centres undefined) [2-hexanol] + CCCCN	mPa·s	1.2
CC(C)CC(C)O (centres undefined) [4-methyl-2-pentanol] + CCCCN	mPa·s	1.09

Data request: Any idea what its viscosity is? The molecule is CCCC(C)CO (centres undefined) [2-methyl-1-pentanol] + CCCCN
Data returned: 1.37

* * *

- experiment description: xn = mol fraction of the nth substance listed
- experimental conditions: 323.15 K; 101.3 kPa; Liquid; x2 = 0.9
property measured: mass density (kg/m3)
Just the number please, in kg/m3, no unit attached.

molecule	property measured	experimental value
CCCC(O)CC (centres undefined) [3-hexanol] + CCCCN	mass density	723.2

Data request: Would you mind telling me what mass density value was observed for CC(C)CC(C)O (centres undefined) [4-methyl-2-pentanol] + CCCCN ?
Data returned: 721.7

Data request: What value of mass density has been recorded for this entry: CCCCC(C)O (centres undefined) [2-hexanol] + CCCCN
Data returned: 722.9

Data request: Query: mass density; subject: CCCC(C)(C)O [2-methyl-2-pentanol] + CCCCN
Data returned: 723.6
